These data points were gathered from ChEMBL document CHEMBL5532673.

- test-system: NACHT, LRR and PYD domains-containing protein 3 (Mus musculus)
- experimental-details: Inhibition of NLRP3 inflammasome activation in LPS treated mouse J774.A1 cells assessed as inhibition of ATP-stimulated IL-1beta secretion pre-incubated for 30 mins followed by ATP addition measured after 30 mins by ELISA
- Type: cell-based
- test-settings: read-out: IC50
pIC50: −log10 of the molar value.
attribute-measured: pIC50

Solved entries (count: 5):
>  <compound-structure-string>
COc1ccc(Cl)cc1Cn1cc(-c2ccc(C(=O)O)cc2)nn1

>  <pIC50>
4.85

$$$$
>  <compound-structure-string>
COc1ccc(Cl)cc1Cn1cc(-c2ccc(C(=O)N3CCC3)cc2)nn1

>  <pIC50>
5.84

$$$$
>  <compound-structure-string>
CCCOc1ccc(Cl)cc1Cn1cc(-c2ccc(C)cc2)nn1

>  <pIC50>
5.08

$$$$
>  <compound-structure-string>
COC(=O)c1ccc(-c2cn(Cc3cc(F)ccc3OC)nn2)cc1

>  <pIC50>
5.82

$$$$
>  <compound-structure-string>
COC(=O)c1ccc(-c2cn(Cc3cc(Cl)ccc3OC)nn2)c(C)c1

>  <pIC50>
5.69

$$$$

[a] COC(=O)c1ccc(-c2cn(Cc3cc(Cl)ccc3O)nn2)cc1
[b] COC(=O)c1ccc(-c2cn(Cc3cc(Cl)ccc3OC)nn2)c(F)c1
[c] CCCOc1ccc(Cl)cc1Cn1cc(-c2ccc(C(=O)O)cc2)nn1
Ascending by pIC50, please: list the compounds accordingly. Answer format: the labels, in the requested order.
c, a, b

[A] COC(=O)c1ccc(-c2cn(Cc3c(OC)ccc(F)c3F)nn2)cc1
[B] CCCOc1ccc(Cl)cc1Cn1cc(-c2ccc(S(N)(=O)=O)cc2)nn1
Please indicate which entry, A or B , has the lower recorded pIC50 value. Write down the label attached to your selection.
A

----------
- test-system: NACHT, LRR and PYD domains-containing protein 3 (Mus musculus)
- experimental-details: Inhibition of NLRP3 inflammasome activation in LPS treated mouse J774.A1 cells assessed as inhibition of ATP-stimulated IL-1beta secretion pre-incubated for 30 mins followed by ATP addition measured after 30 mins by ELISA
- Type: cell-based
- test-settings: read-out: IC50
pIC50: −log10 of the molar value.
attribute-measured: pIC50

Worked cases, answers included:
>  <compound-structure-string>
COC(=O)c1ccc(-c2cn(Cc3cc(Cl)ccc3OC)nn2)nc1

>  <attribute-measured>
pIC50

>  <data-value>
5.64

$$$$
>  <compound-structure-string>
COC(=O)c1ccc(-c2cn(Cc3cc(F)c(F)cc3OC)nn2)cc1

>  <attribute-measured>
pIC50

>  <data-value>
5.61

$$$$

[I] COC(=O)c1ccc(-c2cn(Cc3ccccc3OC)nn2)cc1
[II] COC(=O)c1ccc(-c2cn(Cc3cccc(Cl)c3)nn2)cc1
[III] COC(=O)c1ccc(-c2cn(Cc3ccccc3OC(F)F)nn2)cc1
[IV] COC(=O)c1ccc(-c2cn(Cc3cc(C(F)(F)F)ccc3OC)nn2)cc1
Ordering criterion: pIC50; begin with the maximum. State the ranking by listing the labels in the requested order.
IV, II, I, III

[I] COC(=O)c1ccc(-c2cn(Cc3cc(Cl)cc(OC)c3)nn2)cc1
[II] CNC(=O)c1ccc(-c2cn(Cc3cc(Cl)ccc3OC)nn2)cc1
[III] CCCOc1ccc(Cl)cc1Cn1cc(-c2ccc(C(=O)OC)cc2)nn1
[IV] CCCOc1ccc(Cl)cc1Cn1cc(-c2ccc(C(F)(F)F)cc2)nn1
Let's sort these by pIC50, smallest first. Go ahead? Ranked list of labels, please, in the requested order.
IV, II, III, I
(IV: 4.89, II: 5.38, III: 5.92, I: 6.29)

----------
- test-system: NACHT, LRR and PYD domains-containing protein 3 (Mus musculus, UniProt Q8R4B8)
- Sequence (Q8R4B8 whole entry, the tested form may be a part): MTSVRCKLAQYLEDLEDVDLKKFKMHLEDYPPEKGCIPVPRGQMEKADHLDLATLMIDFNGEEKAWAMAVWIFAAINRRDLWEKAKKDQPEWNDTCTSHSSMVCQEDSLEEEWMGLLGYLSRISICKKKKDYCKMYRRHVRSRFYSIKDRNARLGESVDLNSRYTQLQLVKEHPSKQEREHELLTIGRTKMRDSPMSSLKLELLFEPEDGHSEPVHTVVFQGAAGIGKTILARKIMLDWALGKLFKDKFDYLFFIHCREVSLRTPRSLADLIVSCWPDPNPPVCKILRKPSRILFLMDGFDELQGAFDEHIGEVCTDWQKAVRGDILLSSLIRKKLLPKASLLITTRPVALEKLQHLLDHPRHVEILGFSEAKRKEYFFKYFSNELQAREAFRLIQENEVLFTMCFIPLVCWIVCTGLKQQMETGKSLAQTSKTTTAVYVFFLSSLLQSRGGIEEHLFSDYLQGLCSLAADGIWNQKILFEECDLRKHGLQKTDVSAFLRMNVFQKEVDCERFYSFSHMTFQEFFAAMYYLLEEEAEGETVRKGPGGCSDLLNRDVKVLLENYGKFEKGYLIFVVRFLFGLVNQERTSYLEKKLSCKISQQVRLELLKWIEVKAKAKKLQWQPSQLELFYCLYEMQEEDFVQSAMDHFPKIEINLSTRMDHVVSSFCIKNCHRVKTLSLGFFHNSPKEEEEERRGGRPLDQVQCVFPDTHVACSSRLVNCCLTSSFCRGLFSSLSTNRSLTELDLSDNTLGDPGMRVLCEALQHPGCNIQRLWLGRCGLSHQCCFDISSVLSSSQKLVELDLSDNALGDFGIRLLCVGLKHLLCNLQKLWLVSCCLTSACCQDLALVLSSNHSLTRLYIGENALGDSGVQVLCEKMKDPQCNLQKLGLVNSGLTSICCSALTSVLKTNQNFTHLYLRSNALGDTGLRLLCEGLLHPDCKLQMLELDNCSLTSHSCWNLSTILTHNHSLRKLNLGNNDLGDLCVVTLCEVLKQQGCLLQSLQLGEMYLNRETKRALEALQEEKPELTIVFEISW
- experimental-details: Inhibition of NLRP3 inflammasome activation in LPS treated mouse J774.A1 cells assessed as inhibition of ATP-stimulated IL-1beta secretion pre-incubated for 30 mins followed by ATP addition measured after 30 mins by ELISA
- Type: cell-based
- test-settings: read-out: IC50
attribute-measured: IC50 (µM)

>  <compound-structure-string>
COc1ccc(-c2cn(Cc3cc(Cl)ccc3OC)nn2)cc1

>  <unit-label>
µM

>  <IC50>
1.31

$$$$

[P] COC(=O)c1ccc(-c2cn(Cc3cc(Br)ccc3OC)nn2)cc1
[Q] COC(=O)c1cccc(-c2cn(Cc3cc(Cl)ccc3OC)nn2)c1
Sorting by IC50 in descending order, would P or Q appear first? In your reply, give the label of the chosen option.
Q
(Q: 1.61 µM, P: 1.07 µM)
